Entries and their kon values follow.
# System: T1, PD-1.His (UniProt Q15116 25-170, limits assumed)
# T1 construct: not shown: His tag
# T1 sequence (Q15116 25-170 limits assumed): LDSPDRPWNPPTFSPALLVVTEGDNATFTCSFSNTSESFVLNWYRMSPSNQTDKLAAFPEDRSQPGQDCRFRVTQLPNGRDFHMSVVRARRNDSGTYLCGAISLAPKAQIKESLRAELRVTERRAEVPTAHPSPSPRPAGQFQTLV
# Method notes: SPR, antibody captured on protein A, PD-1.His in flow
Answer in M⁻¹ s⁻¹, number only, no unit symbol.

>  <Binder>
NB182 (Fc fusion, not shown: IgG4 constant region of vector pCDNA3.4-IgG4) heavy: QVQLVESGGGLVQAGGSLRLSCAASGDTSFISAAGWYRQAPGKERELVAAITNTGITYYPDSVKGRFTISRDNAKNTVYLQMNNLKPEDTAVYYCNAGAPPPGGLGYDESDYWGQGTQVTVSS

>  <kon, M⁻¹ s⁻¹>
7380

$$$$
>  <Binder>
NB182-z5 (Fc fusion, format not restated; not shown: IgG4 constant region of vector pCDNA3.4-IgG4) heavy: EVQLVESGGGLVQPGGSLRLSCSASGDTSFISAAGWYRQAPGKERELVAAITNTGITYYPDSVKGRFTISRDNSKNTVYLQMNSLRAEDTAVYYCNAGAPPPGGLGYDESDYWGQGTLVTVSS

>  <kon, M⁻¹ s⁻¹>
6460

$$$$
>  <Binder>
NB182-z1 (Fc fusion, format not restated; not shown: IgG4 constant region of vector pCDNA3.4-IgG4) heavy: EVQLVESGGGLVQPGGSLRLSCSASGDTSFISAAGWYRQAPGKERELVSAITNTGITYYPDSVKGRFTISRDNSKNTVYLQMNSLRAEDTAVYYCNAGAPPPGGLGYDESDYWGQGTQVTVSS

>  <kon, M⁻¹ s⁻¹>
9220

$$$$
>  <Binder>
NB182-z4 (Fc fusion, format not restated; not shown: IgG4 constant region of vector pCDNA3.4-IgG4) heavy: EVQLVESGGGLVQPGGSLRLSCSASGDTSFISAAGWYRQAPGKERELVSAITNTGITYYPDSVKGRFTISRDNSKNTVYLQMNNLRAEDTAVYYCNAGAPPPGGLGYDESDYWGQGTQVTVSS

>  <kon, M⁻¹ s⁻¹>
6480

$$$$
>  <Binder>
NB194-z1 (Fc fusion, format not restated; not shown: IgG4 constant region of vector pCDNA3.4-IgG4) heavy: EVQLVESGGGLVQPGGSLRLSCAASGRPFSIYDMGWFRQAPDKERESVAVISLSRGNTYYADSVKGRFTISRDNAKNTVYLQMNSLRAEDTAVYSCGVDRRQYGLGIPPLADHWGQGTQVTVSS

>  <kon, M⁻¹ s⁻¹>
128000

$$$$
>  <Binder>
NB182-z2 (Fc fusion, format not restated; not shown: IgG4 constant region of vector pCDNA3.4-IgG4) heavy: EVQLVESGGGLVQPGGSLRLSCSASGDTSFISAAGWYRQAPGKERELVSAITNTGITYYPDSVKGRFTISRDNAKNTVYLQMNSLRAEDTAVYYCNAGAPPPGGLGYDESDYWGQGTQVTVSS

>  <kon, M⁻¹ s⁻¹>
5600

$$$$
>  <Binder>
NB194 (Fc fusion, not shown: IgG4 constant region of vector pCDNA3.4-IgG4) heavy: QVQLVETGGGLVRAGGSLRLSCTASGRPFSIYDMGWFRQAPDKERESVAVINLSRGDTYYADSVKGRFTISLDSAKNTVYLQMNSLKPEDTAVYSCGVDRRQYGLGIPPLADHWGQGTQVTVSS

>  <kon, M⁻¹ s⁻¹>
212000

$$$$
>  <Binder>
NB194-z4 (Fc fusion, format not restated; not shown: IgG4 constant region of vector pCDNA3.4-IgG4) heavy: EVQLVESGGGLVQPGGSLRLSCAASGRPFSIYDMGWFRQAPDKERESVAVINLARGNTYYADSVKGRFTISRDNAKNTVYLQMNSLRAEDTAVYSCGVDRRQYGLGIPPLADHWGQGTQVTVSS

>  <kon, M⁻¹ s⁻¹>
133000

$$$$

Exam item: I'd like to know its kon. The binder in question is NB194-z5 (Fc fusion, format not restated; not shown: IgG4 constant region of vector pCDNA3.4-IgG4) heavy: EVQLVESGGGLVQPGGSLRLSCAASGRPFSIYDMGWFRQAPDKERESVAVINLSRGNTYYADSVKGRFTISRDNAKNTVYLQMNSLRAEDTAVYSCGVDRRQYGLGIPPLADHWGQGTQVTVSS
Marked response: 133000

Exam item: Can you look up the measured kon of NB182-z3 (Fc fusion, format not restated; not shown: IgG4 constant region of vector pCDNA3.4-IgG4) heavy: EVQLVESGGGLVQPGGSLRLSCSASGDTSFISAAGWYRQAPGKERELVSAITNTGITYYPDSVKGRFTISRDNSKNTLYLQMNNLRAEDTAVYYCNAGAPPPGGLGYDESDYWGQGTQVTVSS for me?
Marked response: 6000

Exam item: Fill in: kon of NB194-z2 (Fc fusion, format not restated; not shown: IgG4 constant region of vector pCDNA3.4-IgG4) heavy: EVQLVESGGGLVQPGGSLRLSCAASGRPFSIYDMGWFRQAPDKERESVAVISLSRGNTYYADSVKGRFTISRDSAKNTVYLQMNSLRAEDTAVYSCGVDRRQYGLGIPPLADHWGQGTQVTVSS is ___
Marked response: 97600
